Cited source for all entries: ChEMBL document CHEMBL3991601

Activity calls are given as the source filed them.
Insulin-like growth factor 1 receptor (Homo sapiens, UniProt P08069): reported Kd for various compounds. Note: in the data inactive means no Kd found up to 30 µM.
Sequence (P08069 31-736 limits assumed): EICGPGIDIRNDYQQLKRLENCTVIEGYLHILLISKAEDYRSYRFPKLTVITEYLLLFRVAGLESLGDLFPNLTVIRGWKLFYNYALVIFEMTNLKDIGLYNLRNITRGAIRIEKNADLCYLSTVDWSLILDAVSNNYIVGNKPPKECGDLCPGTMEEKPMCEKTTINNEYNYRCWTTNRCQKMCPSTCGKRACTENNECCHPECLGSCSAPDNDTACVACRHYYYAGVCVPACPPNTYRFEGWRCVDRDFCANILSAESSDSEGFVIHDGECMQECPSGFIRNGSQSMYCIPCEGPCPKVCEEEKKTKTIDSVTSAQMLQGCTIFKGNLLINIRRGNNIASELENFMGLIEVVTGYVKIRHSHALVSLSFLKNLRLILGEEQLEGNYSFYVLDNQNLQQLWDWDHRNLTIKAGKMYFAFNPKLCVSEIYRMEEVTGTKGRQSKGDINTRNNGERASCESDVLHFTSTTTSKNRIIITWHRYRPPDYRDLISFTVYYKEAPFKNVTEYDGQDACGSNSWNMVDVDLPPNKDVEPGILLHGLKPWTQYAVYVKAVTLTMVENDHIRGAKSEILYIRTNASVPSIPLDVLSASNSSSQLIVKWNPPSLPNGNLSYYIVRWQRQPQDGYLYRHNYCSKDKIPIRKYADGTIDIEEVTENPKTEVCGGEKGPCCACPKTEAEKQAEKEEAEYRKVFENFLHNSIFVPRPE
Sequence (P08069 741-1367 limits assumed): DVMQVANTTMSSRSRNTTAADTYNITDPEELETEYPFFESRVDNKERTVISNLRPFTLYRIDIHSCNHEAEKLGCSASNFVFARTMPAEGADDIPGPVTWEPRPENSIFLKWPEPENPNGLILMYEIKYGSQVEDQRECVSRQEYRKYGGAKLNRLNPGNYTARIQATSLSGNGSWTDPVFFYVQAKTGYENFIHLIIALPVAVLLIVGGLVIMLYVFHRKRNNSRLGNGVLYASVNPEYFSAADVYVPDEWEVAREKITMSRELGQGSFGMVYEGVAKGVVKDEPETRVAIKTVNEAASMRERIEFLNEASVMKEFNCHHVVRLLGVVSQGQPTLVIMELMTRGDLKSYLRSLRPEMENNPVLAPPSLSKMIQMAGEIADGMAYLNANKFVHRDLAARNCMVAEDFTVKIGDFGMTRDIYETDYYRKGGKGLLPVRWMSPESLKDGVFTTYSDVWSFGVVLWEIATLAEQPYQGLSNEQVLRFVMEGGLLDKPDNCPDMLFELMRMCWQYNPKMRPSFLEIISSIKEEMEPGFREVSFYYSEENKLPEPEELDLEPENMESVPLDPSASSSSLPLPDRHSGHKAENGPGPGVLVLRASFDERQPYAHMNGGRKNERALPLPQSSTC
quantity: Kd

{"compound": "O=C1NC(=O)/C(=C/c2ccc3nccc(-c4ccncc4)c3c2)S1 [GSK-1059615]", "quantity": "Kd", "reported.measurement": "> 30 µM (inactive)"}
{"compound": "COc1cc(CCc2cc(NC(=O)c3ccc(N4C[C@@H](C)N[C@@H](C)C4)cc3)n[nH]2)cc(OC)c1 [AZD-4547]", "quantity": "Kd", "reported.measurement": "> 30 µM (inactive)"}
{"compound": "C[C@@H]1CN(Cc2ccc(F)cc2)[C@@H](C)CN1C(=O)c1cc2c(C(=O)C(=O)N(C)C)cn(C)c2cc1Cl [TALMAPIMOD]", "quantity": "Kd", "reported.measurement": "> 30 µM (inactive)"}
{"compound": "CNC(=O)c1ccc(C)c(-n2c(C)cc(OCc3ccc(F)cc3F)c(Br)c2=O)c1 [PH-797804]", "quantity": "Kd", "reported.measurement": "> 30 µM (inactive)"}
{"compound": "CN1CCC(CNc2ccc3ncc(-c4cccc(OC(F)(F)F)c4)n3n2)CC1 [SGI-1776]", "quantity": "Kd", "reported.measurement": "> 30 µM (inactive)"}
{"compound": "COc1cc2nccc(Oc3ccc(NC(=O)NC4CC4)c(Cl)c3)c2cc1C(N)=O [LENVATINIB]", "quantity": "Kd", "reported.measurement": "> 30 µM (inactive)"}
{"compound": "CC(C)Nc1cc(-c2c[nH]c(C(=O)N[C@H](CO)c3cccc(Cl)c3)c2)c(Cl)cn1 [ULIXERTINIB]", "quantity": "Kd", "reported.measurement": "> 30 µM (inactive)"}
{"compound": "COc1cc(OC)c(/C=C/S(=O)(=O)Cc2ccc(OC)c(NCC(=O)O)c2)c(OC)c1 [RIGOSERTIB]", "quantity": "Kd", "reported.measurement": "> 30 µM (inactive)"}
{"compound": "CN1N=C(N)c2cn([C@@H]3O[C@H](COP(=O)(O)O)[C@@H](O)[C@H]3O)c3ncnc1c23 [TRICIRIBINE PHOSPHATE]", "quantity": "Kd", "reported.measurement": "> 30 µM (inactive)"}
